Tested on: UniProtKB Q99571
Assay details: Assay B: human P2X4 receptor cell line, mitochondrial photina luminescence (agonist Bz-ATP at EC50)
Assay type: cell-based
Parameters: host or cells: HEK 293 (recombinant, constitutively expressing; with mitochondrial photina in Assay B)
Measurement conditions: HEK human P2X4 cell line, photina luminescence, agonist Bz-ATP at EC50, average; read-out: human P2X4 Assay B avg Efficacy
Property measured: Emax (%)

CCOc1ccccc1CC(=O)Nc1ccc(Oc2cccc(Cl)c2)c(S(N)(=O)=O)c1 [Example 088] : 75
Cc1cc(Cl)c(CC(=O)Nc2ccc(Oc3cccc(Cl)c3)c(S(N)(=O)=O)c2)c(Cl)c1 [Example 126] : 81
NS(=O)(=O)c1cc(NC(=O)Cc2ccccc2Cl)ccc1Oc1cccc(F)c1 [Example 011] : 67
COc1ccccc1Oc1ccc(NC(=O)Cc2ccc(C(F)(F)F)cc2)cc1S(N)(=O)=O [Example 071] : 73
NS(=O)(=O)c1cc(NC(=O)Cc2c(Cl)cccc2Cl)ccc1Oc1cccc(Cl)c1 [Example 104] : 60
CC(C)(O)c1ccc(Oc2ccc(NC(=O)Cc3ccccc3Cl)cc2S(N)(=O)=O)cc1 [Example 264] : 80
CC1(COc2ccc(NC(=O)Cc3ccccc3Cl)cc2S(N)(=O)=O)CCOCC1 [Example 053] : 84
NS(=O)(=O)c1cc(NC(=O)Cc2ccccc2)ccc1OCc1ccccc1 [Example 146] : 71

###

Tested on: P2X4 (Homo sapiens)
Sequence (Q99571 whole entry): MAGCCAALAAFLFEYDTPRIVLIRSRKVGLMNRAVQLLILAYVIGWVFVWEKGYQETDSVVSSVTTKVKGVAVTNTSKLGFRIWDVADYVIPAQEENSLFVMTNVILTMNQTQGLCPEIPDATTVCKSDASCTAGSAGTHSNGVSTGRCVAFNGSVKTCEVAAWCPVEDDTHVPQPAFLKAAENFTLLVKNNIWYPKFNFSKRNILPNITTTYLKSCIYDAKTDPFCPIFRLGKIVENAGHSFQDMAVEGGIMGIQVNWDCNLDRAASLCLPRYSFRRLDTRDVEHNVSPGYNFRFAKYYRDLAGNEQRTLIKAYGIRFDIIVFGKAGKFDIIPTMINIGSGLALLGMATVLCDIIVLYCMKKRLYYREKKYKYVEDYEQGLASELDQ
Assay details: Assay B: human P2X4 receptor cell line, mitochondrial photina luminescence (agonist Bz-ATP at EC50)
Type: cell-based
Parameters: host or cells: HEK 293 (recombinant, constitutively expressing; with mitochondrial photina in Assay B)
Measurement conditions: HEK human P2X4 cell line, photina luminescence, agonist Bz-ATP at EC50, average; read-out: human P2X4 Assay B avg Efficacy
Property measured: Emax (%)

# example entries with known answers
COCCOc1cccc(CC(=O)Nc2ccc(Oc3cccc(Cl)c3)c(S(N)(=O)=O)c2)c1 [Example 210] : 71
NS(=O)(=O)c1cc(NC(=O)Cc2ccc(C(F)F)cc2)ccc1Oc1ccc(Cl)cc1 [Example 234] : 43
NS(=O)(=O)c1cc(NC(=O)Cc2cc(F)ccc2Cl)ccc1Oc1cccc(Cl)c1 [Example 099] : 55
NS(=O)(=O)c1cc(NC(=O)Cc2ccccc2Cl)ccc1Oc1cccc(N2CCN(C(=O)Cc3ccccc3Cl)CC2)c1 [Example 027] : 99
NS(=O)(=O)c1cc(NC(=O)Cc2ccccc2Cl)ccc1OC1CCS(=O)(=O)C1 (centres unmarked) [Example 232] : 49
NS(=O)(=O)c1cc(NC(=O)Cc2ccccc2Cl)ccc1Oc1ccc[nH]c1=O [Example 075] : 77
NS(=O)(=O)c1cc(NC(=O)Cc2ccc(F)cc2Cl)ccc1Oc1ccc(Cl)cc1 [Example 231] : 46
Cc1cc(Oc2cccc(Cl)c2)c(S(N)(=O)=O)cc1NC(=O)Cc1ccccc1Cl [Example 240] : 86

(P) NS(=O)(=O)c1cc(NC(=O)Cc2ccc(F)cc2)ccc1Oc1cccc(Cl)c1 [Example 085]
(Q) NS(=O)(=O)c1cc(NC(=O)Cc2ccccc2Cl)ccc1Oc1ccc(Cl)nc1 [Example 081]
(R) NS(=O)(=O)c1cc(NC(=O)Cc2ccccc2Cl)ccc1OCc1ccncc1 [Example 151]
Request: Put the items in sequence by Emax, from largest down. Give the order by naming the labels one after another as requested.
Result: R, P, Q
(R: 97%, P: 59%, Q: 36%)

###

Tested on: UniProt:Q99571
Assay details: Assay B: human P2X4 receptor cell line, mitochondrial photina luminescence (agonist Bz-ATP at EC50)
Type: cell-based
Design: host or cells: HEK 293 (recombinant, constitutively expressing; with mitochondrial photina in Assay B)
Measurement conditions: HEK human P2X4 cell line, photina luminescence, agonist Bz-ATP at EC50, average; read-out: human P2X4 Assay B avg Efficacy
Property measured: Emax (%)

CN(C)c1cccc(Oc2ccc(NC(=O)Cc3ccccc3Cl)cc2S(N)(=O)=O)c1 : 81
NS(=O)(=O)c1cc(NC(=O)Cc2cc(C(F)(F)F)ccc2Cl)ccc1Oc1cccc(Cl)c1 : 56
NS(=O)(=O)c1cc(NC(=O)Cc2ccccc2Cl)ccc1Oc1cncnc1 : 80
N#Cc1cc(C#N)cc(Oc2ccc(NC(=O)Cc3ccccc3Cl)cc2S(N)(=O)=O)c1 : 75
N#Cc1cccc(COc2ccc(NC(=O)Cc3ccccc3Cl)cc2S(N)(=O)=O)c1 : 70
NS(=O)(=O)c1cc(NC(=O)Cc2ccccc2Cl)ccc1Oc1cccc(N2CCOCC2)c1 : 71
NS(=O)(=O)c1cc(NC(=O)Cc2cc(Br)ccc2Cl)ccc1Oc1cccc(Cl)c1 : 61
NS(=O)(=O)c1cc(NC(=O)Cc2cccnc2Cl)ccc1Oc1cccc(Cl)c1 : 68

###

Tested on: UniProt:Q99571
Assay details: Assay A: human P2X4 receptor cell line, FLIPR calcium assay (Fluo-8, agonist Bz-ATP at EC80)
Format: cell-based
Design: host or cells: HEK 293 (recombinant, constitutively expressing; with mitochondrial photina in Assay B)
Measurement conditions: percentage of maximal inhibition; HEK human P2X4 cells, Fluo-8 FLIPR; read-out: human P2X4 Assay A avg Efficacy
Property measured: Emax (%)

# example entries with known answers
NS(=O)(=O)c1cc(NC(=O)Cc2ccc(O)cc2)ccc1Oc1cccc(Cl)c1 [Example 256] : 75
NS(=O)(=O)c1cc(NC(=O)Cc2ccccc2Cl)ccc1Oc1cccc(N2CCOCC2)c1 [Example 026] : 95
NS(=O)(=O)c1cc(NC(=O)Cc2cc(F)ccc2Cl)cnc1Oc1cccc(Cl)c1 [Example 296] : 78

(A) NS(=O)(=O)c1cc(NC(=O)Cc2ccccc2C(F)(F)F)cnc1Oc1cccc(Cl)c1 [Example 294]
(B) NS(=O)(=O)c1cc(NC(=O)Cc2ccccc2Cl)ccc1OC1CCS(=O)(=O)C1 (centres unmarked) [Example 232]
(C) NS(=O)(=O)c1cc(NC(=O)Cc2ccccc2Cl)c(Cl)cc1Oc1cccc(Cl)c1 [Example 082]
Request: Put the items in sequence by Emax, from largest down. Give the order by naming the labels one after another as requested.
Result: A, B, C

###

Tested on: mouse P2X4 receptors (Mus musculus)
Sequence (Q9JJX6 whole entry): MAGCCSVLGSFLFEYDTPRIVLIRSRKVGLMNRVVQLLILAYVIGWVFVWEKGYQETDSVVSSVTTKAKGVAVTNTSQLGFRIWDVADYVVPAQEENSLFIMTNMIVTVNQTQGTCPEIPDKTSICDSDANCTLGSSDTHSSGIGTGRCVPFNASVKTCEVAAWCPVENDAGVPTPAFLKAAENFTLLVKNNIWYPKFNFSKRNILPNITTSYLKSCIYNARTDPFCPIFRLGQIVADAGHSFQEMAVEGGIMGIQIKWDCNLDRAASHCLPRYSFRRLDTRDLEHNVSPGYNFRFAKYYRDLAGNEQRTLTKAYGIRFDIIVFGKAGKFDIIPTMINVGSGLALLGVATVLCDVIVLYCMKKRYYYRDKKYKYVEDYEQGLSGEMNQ
Assay details: Assay B: mouse P2X4 receptor cell line, Fluo8 fluorescence FLIPR (agonist Bz-ATP at EC50)
Measurement conditions: HEK mouse P2X4 cell line, agonist Bz-ATP at EC50, average
Property measured: IC50

# example entries with known answers
NS(=O)(=O)c1cc(NC(=O)Cc2ccccc2Cl)ccc1Oc1ccc(-n2ccnc2)cc1 : > 50 µM
NS(=O)(=O)c1cc(NC(=O)Cc2ccccc2Cl)ccc1OCc1ccccc1F : 1.75 µM

Request: Short answer please: IC50, mouse P2X4 receptors (Mus musculus), entry "NS(=O)(=O)c1cc(NC(=O)Cc2ccccc2Cl)ccc1OCCc1cccc(Cl)c1"
Result: > 50 µM

###

Tested on: P2X4 (Homo sapiens)
Assay details: Assay A: human P2X4 receptor cell line, FLIPR calcium assay (Fluo-8, agonist Bz-ATP at EC80)
Assay type: cell-based
Design: host or cells: HEK 293 (recombinant, constitutively expressing; with mitochondrial photina in Assay B)
Measurement conditions: HEK human P2X4 cells, Fluo-8 FLIPR, Bz-ATP at EC80; average values
pIC50: −log10 of the molar value.
Property measured: pIC50

NS(=O)(=O)c1cc(NC(=O)Cc2ccccc2Cl)ccc1Oc1ccc(-n2ccnc2)cc1 [Example 042] : 6.62
Cc1ccc(Cl)c(CC(=O)Nc2ccc(Oc3cccc(Cl)c3)c(S(N)(=O)=O)c2)c1Cl [Example 128] : 6.74
NS(=O)(=O)c1cc(NC(=O)Cc2cc(F)ccc2Cl)cc(F)c1Oc1cccc(Cl)c1 [Example 292] : 4.82
Cc1cccc(Cl)c1CC(=O)Nc1ccc(Oc2cccc(Cl)c2)c(S(N)(=O)=O)c1 [Example 096] : 7.11
NS(=O)(=O)c1cc(NC(=O)Cc2c(Cl)ccc(Br)c2Cl)ccc1Oc1cccc(Cl)c1 [Example 131] : 6.55
NS(=O)(=O)c1cc(NC(=O)Cc2ccccc2Cl)ccc1Oc1ccccc1F [Example 010] : 7.57
NS(=O)(=O)c1cc(NC(=O)Cc2ccccc2F)cnc1Oc1cccc(Cl)c1 [Example 293] : 7.14
NS(=O)(=O)c1cc(NC(=O)Cc2ccccc2Cl)ccc1Oc1cncc(F)c1 [Example 080] : 7.36
CC(Oc1ccc(NC(=O)Cc2ccccc2Cl)cc1S(N)(=O)=O)c1ccccc1 (single isomer, unassigned) [Example 148A] : 7.13
NS(=O)(=O)c1cc(NC(=O)Cc2ccccc2Cl)ccc1OCC1CCCC1 [Example 160] : 8.00

(1) CN(C)C(=O)c1cccc(CC(=O)Nc2ccc(Oc3cccc(Cl)c3)c(S(N)(=O)=O)c2)c1 [Example 202]
(2) NS(=O)(=O)c1cc(NC(=O)Cc2ccccc2Cl)ccc1Oc1cccc(N2CCCCC2=O)c1 [Example 176]
(3) NS(=O)(=O)c1cc(NC(=O)Cc2ccc(O)cc2)ccc1Oc1cccc(Cl)c1 [Example 256]
(4) NS(=O)(=O)c1cc(NC(=O)Cc2ccccc2Cl)ccc1OCc1ccc(F)cc1 [Example 143]
(5) NS(=O)(=O)c1cc(NC(=O)Cc2ccccc2Cl)ccc1Oc1ccc2c(c1)OCO2 [Example 008]
Request: Put the items in sequence by pIC50, from largest down. Give the order by naming the labels one after another as requested.
Result: 4, 3, 5, 1, 2
